Data provenance is patent US20050277625A1.

test system: erythrocytes; assay: Binding to erythrocytes: displacement of 14C-estradiol sulfamate; parameters: species or system Human; conditions: human blood; relative to estradiol-3-sulfamate = 100
Value kind: RBA to Erythrocytes

{"Compound": "C[C@]12CC[C@@H]3c4ccc(O)cc4CC[C@H]3[C@@H]1C[C@@H](OC(=O)c1ccc(S(N)(=O)=O)cc1)[C@@H]2O", "Target system": "erythrocytes", "Value kind": "RBA to Erythrocytes", "Reported result": 2.6}
{"Compound": "C[C@]12CC[C@@H]3c4ccc(O)cc4CC[C@H]3[C@@H]1C[C@@H](O)[C@@H]2OC(=O)c1cccc(S(N)(=O)=O)c1", "Target system": "erythrocytes", "Value kind": "RBA to Erythrocytes", "Reported result": 0.5}
{"Compound": "C[C@]12CC[C@@H]3c4ccc(O)cc4CC[C@H]3[C@@H]1C[C@@H](OC(=O)c1cccc(S(N)(=O)=O)c1)[C@@H]2O", "Target system": "erythrocytes", "Value kind": "RBA to Erythrocytes", "Reported result": 0.4}
{"Compound": "C[C@]12CC[C@@H]3c4ccc(OS(N)(=O)=O)cc4CC[C@H]3[C@@H]1CC[C@@H]2O [Estradiol-3-sulfamate, reference compound]", "Target system": "erythrocytes", "Value kind": "RBA to Erythrocytes", "Reported result": 100}

###

This listing pairs molecules with measured Angiotensin 1 ED50 (dose which produces an increase by 50% vs. OVX control).
tested on: angiotensinogen, total cholesterol and HDL cholesterol in serum; experiment: Hepatic effects in ovariectomized rats (estrogen-modulated factors of hepatic secretion in serum); conditions: OVX rats, oral, days 1-3, serum
Value kind: Angiotensin 1 ED50 (dose which produces an increase by 50% vs. OVX control) (μg/T/T)

{"Chemical structure": "C[C@]12CC[C@@H]3c4ccc(O)cc4CC[C@H]3[C@@H]1C[C@@H](O)[C@@H]2OC(=O)c1cccc(S(N)(=O)=O)c1", "Target system": "angiotensinogen, total cholesterol and HDL cholesterol in serum", "Reported result": 8.9}
{"Chemical structure": "C[C@]12CC[C@@H]3c4ccc(O)cc4CC[C@H]3[C@@H]1C[C@@H](O)[C@@H]2OC(=O)c1ccc(S(N)(=O)=O)cc1", "Target system": "angiotensinogen, total cholesterol and HDL cholesterol in serum", "Reported result": 17.4}
{"Chemical structure": "C[C@]12CC[C@@H]3c4ccc(O)cc4CC[C@H]3[C@@H]1C[C@@H](O)[C@@H]2O", "Target system": "angiotensinogen, total cholesterol and HDL cholesterol in serum", "Reported result": 7.6}
{"Chemical structure": "C[C@]12CC[C@@H]3c4ccc(O)cc4CC[C@H]3[C@@H]1C[C@@H](OC(=O)c1cccc(S(N)(=O)=O)c1)[C@@H]2O", "Target system": "angiotensinogen, total cholesterol and HDL cholesterol in serum", "Reported result": 5.7}

###

This listing pairs compounds with measured Total Cholesterol ED50 (dose which produces a drop by 50% vs. OVX control).
test system: angiotensinogen, total cholesterol and HDL cholesterol in serum; test: Hepatic effects in ovariectomized rats (estrogen-modulated factors of hepatic secretion in serum); details: OVX rats, oral, days 1-3, serum
Value kind: Total Cholesterol ED50 (dose which produces a drop by 50% vs. OVX control)

{"Compound": "C[C@]12CC[C@@H]3c4ccc(O)cc4CC[C@H]3[C@@H]1C[C@@H](O)[C@@H]2OC(=O)c1ccc(S(N)(=O)=O)cc1 [Compound 1]", "Reported result": "39.9 μg/T/T"}
{"Compound": "C[C@]12CC[C@@H]3c4ccc(O)cc4CC[C@H]3[C@@H]1C[C@@H](OC(=O)c1cccc(S(N)(=O)=O)c1)[C@@H]2O [Compound 10]", "Reported result": "10.7 μg/T/T"}
{"Compound": "C[C@]12CC[C@@H]3c4ccc(O)cc4CC[C@H]3[C@@H]1C[C@@H](O)[C@@H]2OC(=O)c1cccc(S(N)(=O)=O)c1 [Compound 7]", "Reported result": "4.8 μg/T/T"}
{"Compound": "C[C@]12CC[C@@H]3c4ccc(O)cc4CC[C@H]3[C@@H]1C[C@@H](O)[C@@H]2O [Estriol]", "Reported result": "79 μg/T/T"}

###

This listing pairs compounds with measured Uterus Weight UVD (Uterus Doubling Dose vs. OVX).
Tested on: uterus weight
Assay: Estrogenic activity in ovariectomized rats, oral administration (uterus weight)
Format: in vivo, Wistar rats
Settings: OVX rats, oral, treatment days 1-3, sacrifice day 4
Procedure: Table 1 illustrates the estrogenic activity in the case of oral administration and liver toxicity (hepatic effects) based on data of selected compounds in in-vivo tests with rats. Adult Wistar rats are ovariectomized and are brought into the test after a 14-day waiting period. […] Then, the organ weights are determined and estrogen-modulated factors of hepatic secretion in serum are determined, which in the rat are the increase of angiotensinogen and the drop in total cholesterol and HDL cholesterol.
Value kind: Uterus Weight UVD (Uterus Doubling Dose vs. OVX) (μg/T/T)

{"Chemical structure": "C[C@]12CC[C@@H]3c4ccc(O)cc4CC[C@H]3[C@@H]1C[C@@H](O)[C@@H]2OC(=O)c1cccc(S(N)(=O)=O)c1", "Target system": "uterus weight", "Unit annotation": "μg/T/T", "Qualifier sign": "=", "Reported result": 137.5}
{"Chemical structure": "C[C@]12CC[C@@H]3c4ccc(O)cc4CC[C@H]3[C@@H]1C[C@@H](OC(=O)c1cccc(S(N)(=O)=O)c1)[C@@H]2O", "Target system": "uterus weight", "Unit annotation": "μg/T/T", "Qualifier sign": "=", "Reported result": 378.2}
{"Chemical structure": "C[C@]12CC[C@@H]3c4ccc(O)cc4CC[C@H]3[C@@H]1C[C@@H](O)[C@@H]2O", "Target system": "uterus weight", "Unit annotation": "μg/T/T", "Qualifier sign": ">", "Reported result": 1000}
{"Chemical structure": "C[C@]12CC[C@@H]3c4ccc(O)cc4CC[C@H]3[C@@H]1C[C@@H](O)[C@@H]2OC(=O)c1ccc(S(N)(=O)=O)cc1", "Target system": "uterus weight", "Unit annotation": "μg/T/T", "Qualifier sign": "=", "Reported result": 162.6}

###

This listing pairs compounds with measured HDL Cholesterol ED50 (dose which produces a drop by 50% vs. OVX control).
tested on: angiotensinogen, total cholesterol and HDL cholesterol in serum; test: Hepatic effects in ovariectomized rats (estrogen-modulated factors of hepatic secretion in serum); settings: OVX rats, oral, days 1-3, serum
Value kind: HDL Cholesterol ED50 (dose which produces a drop by 50% vs. OVX control) (μg/T/T)

{"Chemical structure": "C[C@]12CC[C@@H]3c4ccc(O)cc4CC[C@H]3[C@@H]1C[C@@H](OC(=O)c1cccc(S(N)(=O)=O)c1)[C@@H]2O", "Reported result": 18.6}
{"Chemical structure": "C[C@]12CC[C@@H]3c4ccc(O)cc4CC[C@H]3[C@@H]1C[C@@H](O)[C@@H]2O", "Reported result": 110.7}
{"Chemical structure": "C[C@]12CC[C@@H]3c4ccc(O)cc4CC[C@H]3[C@@H]1C[C@@H](O)[C@@H]2OC(=O)c1cccc(S(N)(=O)=O)c1", "Reported result": 6.0}
{"Chemical structure": "C[C@]12CC[C@@H]3c4ccc(O)cc4CC[C@H]3[C@@H]1C[C@@H](O)[C@@H]2OC(=O)c1ccc(S(N)(=O)=O)cc1", "Reported result": 45.9}

###

Measurement record for Human Carboanhydrase I (Homo sapiens); quantity recorded: IC50.
Value kind: IC50 (nM)

{"Compound": "C[C@]12CC[C@@H]3c4ccc(O)cc4CC[C@H]3[C@@H]1C[C@@H](OC(=O)c1cccc(S(N)(=O)=O)c1)[C@@H]2O", "Value kind": "IC50", "Unit annotation": "nM", "Reported result": 450}
{"Compound": "C[C@]12CC[C@@H]3c4ccc(OS(N)(=O)=O)cc4CC[C@H]3[C@@H]1CC[C@@H]2O [Estradiol-3-sulfamate, reference compound]", "Value kind": "IC50", "Unit annotation": "nM", "Reported result": 157}
{"Compound": "C[C@]12CC[C@@H]3c4ccc(O)cc4CC[C@H]3[C@@H]1C[C@@H](O)[C@@H]2OC(=O)c1ccc(S(N)(=O)=O)cc1", "Value kind": "IC50", "Unit annotation": "nM", "Reported result": 200}
{"Compound": "C[C@]12CC[C@@H]3c4ccc(O)cc4CC[C@H]3[C@@H]1C[C@@H](O)[C@@H]2OC(=O)c1cccc(S(N)(=O)=O)c1", "Value kind": "IC50", "Unit annotation": "nM", "Reported result": 600}
